Recorded HEK293/CRE-LUC/hGLP1R S/N for the following molecules
targetDesc: human GLP1R (Homo sapiens (Human))
Sequence (P43220 24-463): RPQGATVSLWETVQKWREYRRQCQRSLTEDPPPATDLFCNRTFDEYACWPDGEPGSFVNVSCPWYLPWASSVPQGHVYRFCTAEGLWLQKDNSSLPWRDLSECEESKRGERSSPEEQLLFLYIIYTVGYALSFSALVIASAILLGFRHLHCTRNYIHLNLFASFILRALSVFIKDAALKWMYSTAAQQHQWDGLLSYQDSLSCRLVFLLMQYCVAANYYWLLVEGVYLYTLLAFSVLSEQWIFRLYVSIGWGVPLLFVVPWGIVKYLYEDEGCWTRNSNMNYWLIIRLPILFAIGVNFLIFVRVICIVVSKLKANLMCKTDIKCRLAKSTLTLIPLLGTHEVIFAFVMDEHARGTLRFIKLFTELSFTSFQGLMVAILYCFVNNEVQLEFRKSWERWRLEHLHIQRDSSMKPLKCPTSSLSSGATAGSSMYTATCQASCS
test: cAMP responsive luciferase reporter assay, HEK293/CRE-Luc/hGLP1R cells
Type: cell-based
cond: highest RLU / RLU of untreated wells
Where a SMILES comes first, the peptide text is derived from it. [ ]: non-standard residue; d: D form. The star is where a group is joined. Bip(2'-Et,4'-O(CH2)4NH2) = CCc1cc(OCCCCN)ccc1-c1ccc(C[C@H](N)C(=O)O)cc1; Malonyl(2,2-Me2,histaminyl) = CC(C)(C(=O)NCCc1cnc[nH]1)C(=O)*; Nva(5-(3,5-Me2Ph)) = Cc1cc(C)cc(CCC[C@H](N)C(=O)O)c1; Ala(1H-tetrazol-5-yl) = N[C@@H](Cc1nnn[nH]1)C(=O)O; αMePhe(2-F) = C[C@](N)(Cc1ccccc1F)C(=O)O; NHPh = c1ccc(N*)cc1
quantityKind: HEK293/CRE-LUC/hGLP1R S/N

molecule: CCc1cc(OCCCCn2cc(COCCOCCOCCOCCOCCOCCOCCOCCN)nn2)ccc1-c1ccc(C[C@H](NC(=O)[C@H](CC(=O)O)NC(=O)[C@H](CO)NC(=O)[C@@H](NC(=O)C(C)(Cc2ccccc2F)NC(=O)[C@@H](NC(=O)CNC(=O)[C@H](Cc2nn[nH]n2)NC(=O)C(C)(C)C(=O)NCCc2cnc[nH]2)[C@@H](C)O)[C@@H](C)O)C(=O)N[C@@H](CCCc2cc(C)cc(C)c2)C(N)=O)cc1 (stereo partly drawn)
targetDesc: human GLP1R (Homo sapiens (Human))
quantityKind: HEK293/CRE-LUC/hGLP1R S/N
observedResult: 74.5

molecule: CCc1cc(OCCCCN)ccc1-c1ccc(C[C@H](NC(=O)[C@H](CC(=O)O)NC(=O)[C@H](CO)NC(=O)[C@@H](NC(=O)[C@](C)(Cc2ccccc2F)NC(=O)[C@@H](NC(=O)CNC(=O)[C@H](Cc2nn[nH]n2)NC(=O)C(C)(C)C(=O)NCCc2cnc[nH]2)[C@@H](C)O)[C@@H](C)O)C(=O)N[C@@H](CCCc2cc(C)cc(C)c2)C(=O)Nc2ccccc2)cc1 [P23] ({Malonyl(2,2-Me2,histaminyl)}-[Ala(1H-tetrazol-5-yl)]GT[αMePhe(2-F)]TSD[Bip(2'-Et,4'-O(CH2)4NH2)][Nva(5-(3,5-Me2Ph))]-NHPh)
targetDesc: human GLP1R (Homo sapiens (Human))
quantityKind: HEK293/CRE-LUC/hGLP1R S/N
observedResult: 57.1

molecule: CCc1cc(OCCCCN)ccc1-c1ccc(C[C@H](NC(=O)[C@H](CC(=O)O)NC(=O)[C@H](CO)NC(=O)[C@@H](NC(=O)[C@](C)(Cc2ccccc2F)NC(=O)[C@@H](NC(=O)CNC(=O)[C@H](Cc2nn[nH]n2)NC(=O)[C@H](C)NC(=O)[C@H](Cc2c[nH]cn2)NC(=O)[C@@H](N)CCC(N)=O)[C@@H](C)O)[C@@H](C)O)C(=O)N[C@@H](CCCc2cc(C)cc(C)c2)C(N)=O)cc1 [P13] (H-QHA[Ala(1H-tetrazol-5-yl)]GT[αMePhe(2-F)]TSD[Bip(2'-Et,4'-O(CH2)4NH2)][Nva(5-(3,5-Me2Ph))]-NH2)
targetDesc: human GLP1R (Homo sapiens (Human))
quantityKind: HEK293/CRE-LUC/hGLP1R S/N
observedResult: 69.5
